B1: Azoarcus group I ribozyme (parent)
chain: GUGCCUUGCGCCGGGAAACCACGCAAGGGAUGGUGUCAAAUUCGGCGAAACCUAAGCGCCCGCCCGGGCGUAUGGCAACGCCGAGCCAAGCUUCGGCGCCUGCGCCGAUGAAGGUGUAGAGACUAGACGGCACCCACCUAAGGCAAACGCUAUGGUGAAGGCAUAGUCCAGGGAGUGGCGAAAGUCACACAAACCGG

# Variants of: B1
# Test summary: reverse-splicing fitness (ratio to wild type); higher = more active; in vitro selection; Mg2+ level not given
Classification field: enter True for reverse-splicing fitness values not below 0.01, False for values below it.

Check out these entries, answers already filled in.
# Var, Class name
data = [
    ("A111U A120U A145U C150G U176A", "True"),
    ("A120G C150G C169A U176C", "True"),
    ("C82A A111C A145G C150U C169G U176A", "True"),
]

**Query** Does C82G A111C A120G C150A C169U U176A have a reported reverse-splicing fitness of at least 0.01?
**Result** True

**Query** And what about the variant C82G A111G A120C A145C C150G C169A U176A ?
**Result** True

**Query** And what about the variant C82U A111G A120U A145U C169U U176A ?
**Result** False

**Query** And what about the variant C82U A111G A120C A145U U176C ?
**Result** True

**Query** And what about the variant C82U A111G A120C A145C C150G C169A ?
**Result** False
